Test: Human HepG2 cell viability assay in 384 well format
Format: toxicity, cell-based
Design: dose 125 nL, time 70.5 hour; concentration not given beside the values
Conditions: HepG2 cells, read-out: Inhibition
Assignment: determine reported cytotoxicity at 70.5 h for the given compounds.
Please state the value followed by its unit.

Previously resolved entries follow.
CCOCCCNC(=O)c1nn(CC)cc1Cl: 21.2%
CCSc1cc(C(=O)NCc2ccc(C(=O)NC)cc2)ccn1: -81.1%
COc1ccccc1NC(=O)c1ccc(C)n1C: 96%
CCOC(=O)CNC(=O)NCc1cc(C)n(-c2ccccc2OC)c1C: 14.4%
CCn1nnnc1-c1cccc(NC(=O)CCOC(C)C)c1: -7.16%

For each listed entry, give its cytotoxicity at 70.5 h.
1. O=C(O)C1CCCN1c1nc(-c2ccc(Cl)c(Cl)c2)cc(C(F)(F)F)n1 (stereo not drawn)
2. Cc1nc(CN2CCCC(NCc3ccsc3)C2)no1 (stereo not drawn)
3. Cc1ccc(-n2nnnc2C2(NCc3ccco3)CCCC2)cc1
4. CC(C)(C)NC(=O)CCOc1cccc(F)c1
5. Fc1ccc(Oc2nccnc2C2CCN(C3CCOCC3)CC2)cc1

Reply:
["-3.95%", "1.36%", "-13.6%", "-5.57%", "-3.07%"]

Dear colleague, could you send me cytotoxicity at 70.5 h for each of the items below? Thanks.
1. c1ccc(CCN2CCN(c3ccc4nncn4n3)CC2)cc1
2. Cn1cc(CCN2CCOC(CNc3cccnn3)C2)cn1 (stereo not drawn)
3. c1coc(CN2CCc3onc(Cn4cccc4)c3C2)c1
4. CC(=O)N1CCC[C@@H](NCc2ccc(F)cc2)[C@@H]1c1ccc(C)s1
5. CCn1nc2c(cc1=O)CN(Cc1ccc(-n3cccn3)cc1)CC2

Reply:
["-1.86%", "21.9%", "-6.52%", "-8.87%", "2.14%"]

For every listed record, write down its cytotoxicity at 70.5 h.
1. Cc1cc(CN2C[C@@H]3COC[C@]3(CN(C)C)C2)no1
2. CSCCC(C)NC(=O)c1cccc(-c2n[nH]c(C)n2)c1 (stereo not drawn)
3. COCC(=O)NC(C)c1sc(-c2ccccc2F)nc1C (stereo not drawn)
4. Cn1cc(C2CC(=O)NC23CCN(c2ncc(F)cn2)CC3)cn1 (stereo not drawn)
5. CCN1CCN(C(=O)NC(C)c2noc(-c3ccccc3)n2)CC1 (stereo not drawn)
6. CC(C)NC(=O)N1CC[C@H]2[C@H]1CCN2c1ncccn1

Reply:
1. -6.11%
2. -6.77%
3. -2.79%
4. 25.2%
5. -6.34%
6. -5.58%

Parameters: items (list). Returns: cytotoxicity at 70.5 h for each item.
1. CNS(=O)(=O)CCn1cc(-c2ccc(NC(C)=O)cc2)nn1
2. O=C(c1ccncc1)N1CCC(Cc2cnc3[nH]ccc3c2)CC1
3. O=C(NCc1ccccc1)N1CCC(Oc2ncccc2Br)CC1
4. CN1[C@H]2CC[C@@H]1CN(C(=O)CCc1csc(N)n1)CC2
5. CCc1noc(C(C)N(C)Cc2cc(Br)ccc2OC)n1 (stereo not drawn)

Reply:
3.8%
-5.49%
-7.02%
-11.5%
-15.2%

Please give cytotoxicity at 70.5 h for each item listed below.
1. COc1ccc2c(C)c(C(=O)NC3CCOCC3)oc2c1
2. CC1N(C)C(=O)COC12CCN(Cc1ccsc1)CC2 (stereo not drawn)

Reply:
["-0.242%", "4.85%"]
